Target: UDP-3-O-acyl-N-acetylglucosamine deacetylase (Pseudomonas aeruginosa (strain ATCC 15692 / PAO1 / 1C / PRS 101 / LMG12228), UniProt P47205)
Sequence (P47205 whole entry): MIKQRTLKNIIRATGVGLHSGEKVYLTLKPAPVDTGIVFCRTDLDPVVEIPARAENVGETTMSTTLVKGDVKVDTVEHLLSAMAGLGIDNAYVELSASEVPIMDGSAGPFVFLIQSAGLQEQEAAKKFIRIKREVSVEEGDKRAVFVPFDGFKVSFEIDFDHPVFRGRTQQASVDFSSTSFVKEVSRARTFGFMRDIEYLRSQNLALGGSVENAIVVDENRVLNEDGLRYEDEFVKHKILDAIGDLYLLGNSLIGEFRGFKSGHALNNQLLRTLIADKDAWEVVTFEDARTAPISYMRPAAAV
Experiment: Binding affinity to Pseudomonas aeruginosa PAO1 NB52019 LpxC after 60 to 420 secs by SPR method
pKd: −log10 of the molar value.
Label scheme for pKd: lower than 10 is Not met, 10 and above is Met.

{"columns": ["MOLECULE", "ASSIGNED LABEL"],
 "data": [
  ["C[C@@](C[C@H]1CC(c2ccc(Br)cc2)=NO1)(C(=O)NO)S(C)(=O)=O", "Not met"],
  ["CCCc1ccc(C2=NO[C@@H](C[C@](C)(C(=O)NO)S(C)(=O)=O)C2)cc1", "Not met"],
  ["C[C@@](C[C@H]1CN(c2ccc(-c3ccccc3)cc2)C(=O)O1)(C(=O)NO)S(C)(=O)=O", "Met"]
]}
